# Test Name: Drug repurposing screens with cells derived from glioblastoma tumor samples (AID 1345199); further: on the % scale 0 is the no-effect control and ±100 the full control effect
# Condition Summary: GBM patient neurospheres viability, ATP luminescence, 48 h; at 46 µM (top of the series); tumour line A
Results filed as inconclusive are left out.
Each entry below carries its reported activity, negative = cell killing.

Compound | activity, negative = cell killing, %
O=C(O)Cn1c(C(=O)Nc2nc(-c3ccccc3Cl)cs2)cc2ccccc21 | -41.5
O=C(c1ccccc1)C(O)c1ccccc1 (stereo not drawn) | -19
Cc1[nH]c(C)c(Cl)c(=O)c1Cl | -17.9
OCc1ccc(Cl)cc1Cl | -3.28
CC(CSC(=O)c1ccccc1)C(=O)N1C[C@@H](Sc2ccccc2)C[C@H]1C(=O)O (stereo partly drawn) | -20.1
Cc1c(Cn2ccnc2)c2ccccc2n1CCC(=O)O | -28
C=CCNC(N)=S | -13.7
Cc1cccc(C(=O)O)c1O | -19.5
CC(=O)NS(=O)(=O)c1ccc(N)cc1 | -22.6
O=c1[nH]cnc2nc[nH]c12 | -28.5
Cn1c(=O)c2c(ncn2CCO)n(C)c1=O | -29
O=C(Cn1ccnc1[N+](=O)[O-])NCCO | -16.3
CN1C[C@@H]2C[C@H]1CN2c1cc2c(cc1F)c(=O)c(C(=O)O)cn2C1CC1 | -19.7
